B1: Homeobox expressed in ES cells 1, residues 110 to 165; numbered along this chain, Q9UBX0 (parent)
chain: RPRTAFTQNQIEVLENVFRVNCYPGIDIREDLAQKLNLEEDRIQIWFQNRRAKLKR

Variants of: B1
Test: abundance fitness (aPCA) (normalised: wild type 0, dead -1); higher = more abundant; growth selection in yeast, the domain comes from the species named
Details: Homo sapiens
Classify as follows. Reported abundance fitness greater than or equal to -0.2: True. Reported abundance fitness below: False.

{"Variant spec": "R29K", "Cat": "False"}
{"Variant spec": "L14E", "Cat": "False"}
{"Variant spec": "Q34H", "Cat": "True"}
{"Variant spec": "E30N", "Cat": "True"}
{"Variant spec": "R19Y", "Cat": "False"}
{"Variant spec": "R29T", "Cat": "True"}
{"Variant spec": "I26R", "Cat": "True"}
{"Variant spec": "R19T", "Cat": "True"}
{"Variant spec": "Y23W", "Cat": "True"}
{"Variant spec": "R19I", "Cat": "False"}
{"Variant spec": "P2Y", "Cat": "True"}
{"Variant spec": "G25Y", "Cat": "False"}
{"Variant spec": "R3F", "Cat": "True"}
{"Variant spec": "G25V", "Cat": "False"}
{"Variant spec": "Y23D", "Cat": "False"}
{"Variant spec": "E15P", "Cat": "False"}
{"Variant spec": "Q8S", "Cat": "True"}
{"Variant spec": "V17K", "Cat": "False"}
{"Variant spec": "R29S", "Cat": "False"}
{"Variant spec": "R3Y", "Cat": "True"}
{"Variant spec": "I26F", "Cat": "True"}
{"Variant spec": "I28L", "Cat": "False"}
